# study target: Carbonic anhydrase 5A, mitochondrial (Homo sapiens)
# assay protocol: Binding affinity to human CA5a by phenol red dye based stopped flow CO2 hydration assay
# assay conditions: filed as activator
# maps each entry to its log10 Ka
metric name: log10 Ka (log10 of the value in µM)

[[record]]
compound = "Cc1ccc([Te]CC(C)N)cc1 (stereo unspecified)"
quantitative_readout = 0.60

[[record]]
compound = "Cc1ccccc1[Se]CC(C)N (stereo unspecified)"
quantitative_readout = 1.30

[[record]]
compound = "COc1cc([Te]CC(C)N)cc(OC)c1OC (stereo unspecified)"
quantitative_readout = 0.97

[[record]]
compound = "CC(N)C[Te]c1ccccc1 (stereo unspecified)"
quantitative_readout = 1.15

[[record]]
compound = "CC(N)CSc1cccc(Br)c1 (stereo unspecified)"
quantitative_readout = 1.11

[[record]]
compound = "CC(N)C[Se]c1ccccc1 (stereo unspecified)"
quantitative_readout = 1.17

[[record]]
compound = "CC(N)C[Se]c1ccc(F)cc1 (stereo unspecified)"
quantitative_readout = 1.12

[[record]]
compound = "COc1ccc([Te]CC(C)N)cc1 (stereo unspecified)"
quantitative_readout = 0.52

[[record]]
compound = "Cc1ccc([Se]CC(C)N)cc1 (stereo unspecified)"
quantitative_readout = 0.96

[[record]]
compound = "CC(N)CSc1ccccc1 (stereo unspecified)"
quantitative_readout = 1.09

[[record]]
compound = "CC(N)CSc1ccccc1Br (stereo unspecified)"
quantitative_readout = 1.12

[[record]]
compound = "CC(N)CSc1ccc(Br)cc1 (stereo unspecified)"
quantitative_readout = 1.09

[[record]]
compound = "CC(N)Cc1ccccc1 (stereo unspecified)"
quantitative_readout = -0.09

[[record]]
compound = "COc1ccc([Se]CC(C)N)cc1 (stereo unspecified)"
quantitative_readout = 1.31

[[record]]
compound = "Cc1cccc(C)c1[Se]CC(C)N (stereo unspecified)"
quantitative_readout = 1.32

[[record]]
compound = "CC(N)C[Se]c1ccc(N(C)C)cc1 (stereo unspecified)"
quantitative_readout = 1.15


----------
# study target: Carbonic anhydrase 12 (Homo sapiens)
# assay protocol: Binding affinity to human CA12 by phenol red dye based stopped flow CO2 hydration assay
# assay conditions: filed as activator
metric name: Ka (µM)

[[record]]
compound = "CC(N)C[Se]c1ccc(F)cc1 (stereo not drawn)"
metric_name = "Ka"
unit_spec = "µM"
quantitative_readout = 90.6

[[record]]
compound = "CC(N)Cc1ccccc1 (stereo not drawn)"
metric_name = "Ka"
unit_spec = "µM"
quantitative_readout = 0.64

[[record]]
compound = "Cc1ccc([Se]CC(C)N)cc1 (stereo not drawn)"
metric_name = "Ka"
unit_spec = "µM"
quantitative_readout = 89.7

[[record]]
compound = "COc1ccc([Te]CC(C)N)cc1 (stereo not drawn)"
metric_name = "Ka"
unit_spec = "µM"
quantitative_readout = 52.8

[[record]]
compound = "CC(N)C[Se]c1ccccc1 (stereo not drawn)"
metric_name = "Ka"
unit_spec = "µM"
quantitative_readout = 59.5

[[record]]
compound = "CC(N)C[Se]c1ccc(N(C)C)cc1 (stereo not drawn)"
metric_name = "Ka"
unit_spec = "µM"
quantitative_readout = 58.5

[[record]]
compound = "CC(N)CSc1cccc(Br)c1 (stereo not drawn)"
metric_name = "Ka"
unit_spec = "µM"
quantitative_readout = 87.9

[[record]]
compound = "COc1cc([Te]CC(C)N)cc(OC)c1OC (stereo not drawn)"
metric_name = "Ka"
unit_spec = "µM"
quantitative_readout = 32.7


----------
# study target: Carbonic anhydrase 6 (Homo sapiens)
# assay protocol: Binding affinity to human CA6 by phenol red dye based stopped flow CO2 hydration assay
# assay conditions: filed as activator
Rule: Ka under 50 µM gives false, otherwise true.

[[record]]
molecule = "Cc1cccc(C)c1[Se]CC(C)N (stereo not drawn)"
label = "false"

[[record]]
molecule = "COc1ccc([Se]CC(C)N)cc1 (stereo not drawn)"
label = "false"

[[record]]
molecule = "CC(N)CSc1ccc(Br)cc1 (stereo not drawn)"
label = "true"

[[record]]
molecule = "CC(N)C[Se]c1ccccc1 (stereo not drawn)"
label = "true"

[[record]]
molecule = "CC(N)C[Te]c1ccccc1 (stereo not drawn)"
label = "true"

[[record]]
molecule = "COc1cc([Te]CC(C)N)cc(OC)c1OC (stereo not drawn)"
label = "true"

[[record]]
molecule = "COc1ccc([Te]CC(C)N)cc1 (stereo not drawn)"
label = "false"


----------
This section presents compounds with their documented Ka values.
# study target: Carbonic anhydrase 1 (Homo sapiens)
# assay protocol: Binding affinity to human CA1 by phenol red dye based stopped flow CO2 hydration assay
# assay conditions: filed as activator
metric name: Ka (µM)

[[record]]
compound = "COc1ccc([Se]CC(C)N)cc1 (configuration not stated)"
metric_name = "Ka"
quantitative_readout = 21.4

[[record]]
compound = "CC(N)CSc1ccccc1Br (configuration not stated)"
metric_name = "Ka"
quantitative_readout = 9.5

[[record]]
compound = "Cc1ccc([Te]CC(C)N)cc1 (configuration not stated)"
metric_name = "Ka"
quantitative_readout = 8.2

[[record]]
compound = "CC(N)C[Te]c1ccccc1 (configuration not stated)"
metric_name = "Ka"
quantitative_readout = 9.9

[[record]]
compound = "CC(N)C[Se]c1ccccc1 (configuration not stated)"
metric_name = "Ka"
quantitative_readout = 9.9

[[record]]
compound = "CC(N)C[Se]c1ccc(N(C)C)cc1 (configuration not stated)"
metric_name = "Ka"
quantitative_readout = 22.1

[[record]]
compound = "CC(N)C[Se]c1ccc(F)cc1 (configuration not stated)"
metric_name = "Ka"
quantitative_readout = 19.6


----------
# study target: Amine oxidase [flavin-containing] A (Homo sapiens)
# Sequence (P21397 whole entry): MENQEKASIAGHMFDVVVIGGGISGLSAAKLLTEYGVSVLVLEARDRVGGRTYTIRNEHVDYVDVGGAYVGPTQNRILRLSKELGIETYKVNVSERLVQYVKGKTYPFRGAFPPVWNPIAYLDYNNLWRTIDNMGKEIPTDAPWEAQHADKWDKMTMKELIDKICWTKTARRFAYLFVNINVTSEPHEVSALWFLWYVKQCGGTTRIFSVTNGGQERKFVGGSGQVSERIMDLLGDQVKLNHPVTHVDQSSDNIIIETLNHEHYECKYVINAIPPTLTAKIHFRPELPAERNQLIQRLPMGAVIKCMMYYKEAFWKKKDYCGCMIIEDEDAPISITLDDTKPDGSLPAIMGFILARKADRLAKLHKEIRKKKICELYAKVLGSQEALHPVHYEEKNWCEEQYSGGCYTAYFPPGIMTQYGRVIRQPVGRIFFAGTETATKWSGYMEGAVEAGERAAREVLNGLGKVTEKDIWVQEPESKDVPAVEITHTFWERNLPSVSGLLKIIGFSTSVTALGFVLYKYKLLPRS
# assay protocol: Inhibition of human recombinant MAO-A assessed as inhibition of 4-hydroxyquinoline formation using kynuramine as substrate by fluorescence spectrophotometry analysis
pIC50: −log10 of the molar value.
Rule: pIC50 of 5 or more gives Condition met; anything lower gives Condition not met.

[[record]]
compound = "CC(N)CSc1ccccc1Br (stereo unspecified)"
label = "Condition met"

[[record]]
compound = "Cc1ccc([Te]CC(C)N)cc1 (stereo unspecified)"
label = "Condition met"

[[record]]
compound = "CC(N)C[Te]c1ccccc1 (stereo unspecified)"
label = "Condition not met"

[[record]]
compound = "Cc1ccccc1[Se]CC(C)N (stereo unspecified)"
label = "Condition met"

[[record]]
compound = "COc1ccc([Se]CC(C)N)cc1 (stereo unspecified)"
label = "Condition met"


----------
# study target: Carbonic anhydrase 14 (Homo sapiens)
# assay protocol: Binding affinity to human CA14 by phenol red dye based stopped flow CO2 hydration assay
# assay conditions: filed as activator
The label Met is reserved for Ka strictly under 3 µM; Not met covers values equal to or above it.

[[record]]
molecule = "Cc1ccccc1[Se]CC(C)N (stereo unspecified)"
study_target = "Carbonic anhydrase 14 (Homo sapiens)"
label = "Not met"

[[record]]
molecule = "CC(N)CSc1ccccc1Br (stereo unspecified)"
study_target = "Carbonic anhydrase 14 (Homo sapiens)"
label = "Not met"

[[record]]
molecule = "CC(N)C[Se]c1ccc(N(C)C)cc1 (stereo unspecified)"
study_target = "Carbonic anhydrase 14 (Homo sapiens)"
label = "Not met"

[[record]]
molecule = "COc1ccc([Te]CC(C)N)cc1 (stereo unspecified)"
study_target = "Carbonic anhydrase 14 (Homo sapiens)"
label = "Not met"

[[record]]
molecule = "Cc1ccc([Te]CC(C)N)cc1 (stereo unspecified)"
study_target = "Carbonic anhydrase 14 (Homo sapiens)"
label = "Met"

[[record]]
molecule = "COc1ccc([Se]CC(C)N)cc1 (stereo unspecified)"
study_target = "Carbonic anhydrase 14 (Homo sapiens)"
label = "Not met"

[[record]]
molecule = "Cc1cccc(C)c1[Se]CC(C)N (stereo unspecified)"
study_target = "Carbonic anhydrase 14 (Homo sapiens)"
label = "Met"

[[record]]
molecule = "CC(N)CSc1ccccc1 (stereo unspecified)"
study_target = "Carbonic anhydrase 14 (Homo sapiens)"
label = "Not met"

[[record]]
molecule = "CC(N)CSc1ccc(Br)cc1 (stereo unspecified)"
study_target = "Carbonic anhydrase 14 (Homo sapiens)"
label = "Not met"

[[record]]
molecule = "CC(N)C[Te]c1ccccc1 (stereo unspecified)"
study_target = "Carbonic anhydrase 14 (Homo sapiens)"
label = "Not met"

[[record]]
molecule = "COc1cc([Te]CC(C)N)cc(OC)c1OC (stereo unspecified)"
study_target = "Carbonic anhydrase 14 (Homo sapiens)"
label = "Met"

[[record]]
molecule = "CC(N)C[Se]c1ccccc1 (stereo unspecified)"
study_target = "Carbonic anhydrase 14 (Homo sapiens)"
label = "Not met"

[[record]]
molecule = "Cc1ccc([Se]CC(C)N)cc1 (stereo unspecified)"
study_target = "Carbonic anhydrase 14 (Homo sapiens)"
label = "Not met"

[[record]]
molecule = "CC(N)C[Se]c1ccc(F)cc1 (stereo unspecified)"
study_target = "Carbonic anhydrase 14 (Homo sapiens)"
label = "Met"

[[record]]
molecule = "CC(N)CSc1cccc(Br)c1 (stereo unspecified)"
study_target = "Carbonic anhydrase 14 (Homo sapiens)"
label = "Met"

[[record]]
molecule = "CC(N)Cc1ccccc1 (stereo unspecified)"
study_target = "Carbonic anhydrase 14 (Homo sapiens)"
label = "Not met"

